STUDY_TARGET: Bi-SEQ ID NO: 2, *H**Glu(Bi-PEG)*NLERECVGlaETCSYEEA*NH2
ASSAY_OVERVIEW: ECL assay (Elecsys 2010), ruthenylated antibody and biotinylated peptide, streptavidin beads
Bridge positions count the residues as written; N and C are the ends. Square brackets hold non-standard residues; d marks the D form. Primed or numbered codes have the meaning given here. Glu(Bi-PEG) = N-terminal added Glu carrying a biotin-linker; Glu(Bi-PEG)(3) = N-terminal added Glu biotin-linker residue; Gla = N[C@@H](CC(C(=O)O)C(=O)O)C(=O)O
ATTRIBUTE_MEASURED: reactivity (signal normalized to Bi-SEQ ID NO:1) (%)
Write down the numeric answer in % and omit the unit.

IN: # input binder: monoclonal anti-PIVKA-II antibody 4E8 (antibody, V domains shown, Recombinant rabbit IgG from B-cell cloning, expressed in HEK cells) VH: QSVEESGGRLVTPGTPLTLTCTVSGFDLSRYAVGWVRQAPGKGLEYIGLITSDGRTYYANWAKGRFTVSKTSSTTVDLKMTSPTTEDTATYYCYRNVSLWGQGTLVSVSS VL: DVVMTQTPASVEAAVGGTVTIKCQASQSIGSNLAWYQQKSGQPPKLLIYSASTLAPGVSSRFSGSGSGTEFTLTFTGVQCGDAATYFCQSYAGVSANIFYYSFGGGTEVVVM ; wanted: its reactivity (signal normalized to Bi-SEQ ID NO:1)
OUT: 5

IN: # input binder: monoclonal anti-PIVKA-II antibody 9A6 (antibody, V domains shown, Recombinant rabbit IgG from B-cell cloning, expressed in HEK cells) VH: QSVEESGGRLITPGTPLTLTCTVSGFDLSRYAVGWVRQAPGKGLEYIGLIVSDGRTYYASWAKGRFTVSKTSSTTVDLKMTSPTAGDTATYYCYRNVSLWGQGTLVSVSS VL: DVVMTQTPSSVEAAVGGTVTIKCQASQSIGSNLAWYQQKPGQPPKLLIYSASTLASGVPSRFSGSGSGTEFTLTFSGVQCGDAATYFCQSYAGVSANIFYYSFGGGTEVVVM ; wanted: its reactivity (signal normalized to Bi-SEQ ID NO:1)
OUT: 5

IN: # input binder: monoclonal anti-PIVKA-II antibody 13H7 (antibody, V domains shown, Recombinant rabbit IgG from B-cell cloning, expressed in HEK cells) VH: QSVEESGGRLVTPETPLTLTCTVSGFDLSRYAMGWVRQAPGKGLEYIGLIVSDGRTYYASWAKGRFTISKTSSTTVDLKMASPTTEDTATYYCYRNVSLWGQGTLVSVSE VL: DVVMTQTPSSVEAAVGGTVTIKCQASQSIGSNLAWYQQKPGQPPKLLIYSASTLASGVSSRFKGSGSGTEFTLTISDLECADAATYYCQSYAGISANIFYYAFGGGTEVVVM ; wanted: its reactivity (signal normalized to Bi-SEQ ID NO:1)
OUT: 5

IN: # input binder: monoclonal anti-PIVKA-II antibody 7A10 (antibody, V domains shown, Recombinant rabbit IgG from B-cell cloning, expressed in HEK cells) VH: QSLEESGGRLVTPGTPLTLTCTVSGIDLSTYAMGWVRQAPGKGLEYIGIIRSSGRTYYASWAKGRFTVSKTSSTTVDLSMTSPTTEDTATYYCYRNVSLWGQGTLVSVSS VL: DVVMTQTPSSVEAAVGGTVTIKCQASQSIGNNLAWYQQKPGQRPNLLIYSASTLASGVPSRFRGSGSGTEFTLTISGVQCDDAATYYCQSYAGVSESVFWYSFGGGTGVVVK ; wanted: its reactivity (signal normalized to Bi-SEQ ID NO:1)
OUT: 4

The reported numbers originate from patent US20230055005A1.
